Source: BindingDB's records for doi:10.1021/jm00346a020

- TARGET OF ASSAY: UniProtKB P00376
- Sequence (P00376 whole entry): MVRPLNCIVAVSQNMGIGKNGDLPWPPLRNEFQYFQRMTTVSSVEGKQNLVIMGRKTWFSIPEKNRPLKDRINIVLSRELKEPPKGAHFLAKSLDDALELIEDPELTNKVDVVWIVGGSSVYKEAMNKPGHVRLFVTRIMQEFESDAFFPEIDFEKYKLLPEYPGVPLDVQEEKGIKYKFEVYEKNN
- ASSAY NOTES: Inhibitory activity against bovine liver dihydrofolate reductase at pH 7.2.
Field: Ki. Provide a value for each of the compounds that follow.
One number for each entry, in µM.

I would be grateful if you could provide Ki for each of the following entries.
1. Nc1ncc(Cc2cccc(C(F)(F)F)c2)c(N)n1
2. Nc1ncc(Cc2ccc(Br)cc2)c(N)n1
3. Nc1ncc(Cc2ccc([N+](=O)[O-])cc2)c(N)n1
4. COc1ccc(Cc2cnc(N)nc2N)cc1OC
5. Cc1ccc(Cc2cnc(N)nc2N)cc1
6. Nc1ccc(Cc2cnc(N)nc2N)cc1

output:
1: 1.66; 2: 3.8; 3: 3.72; 4: 2.19; 5: 5.37; 6: 11

// for each compound below, give its Ki
1. COc1ccc(Cc2cnc(N)nc2N)cc1
2. CC(=O)Nc1ccc(Cc2cnc(N)nc2N)cc1[N+](=O)[O-]
3. Nc1ncc(Cc2ccc(O)c(O)c2)c(N)n1
4. CN(C)c1ccc(Cc2cnc(N)nc2N)cc1
5. Nc1ncc(Cc2cccc(Br)c2)c(N)n1
6. Nc1ncc(Cc2ccc(F)cc2)c(N)n1
7. Nc1ncc(Cc2ccc(Cl)cc2)c(N)n1
8. Nc1ncc(Cc2cccc(Cl)c2)c(N)n1

output:
1: 4.47; 2: 2.82; 3: 25.7; 4: 6.17; 5: 1.55; 6: 3.09; 7: 2.51; 8: 1.59

---

- TARGET OF ASSAY: Dihydrofolate reductase (Gallus gallus, UniProt P00378)
- Sequence (P00378 whole entry): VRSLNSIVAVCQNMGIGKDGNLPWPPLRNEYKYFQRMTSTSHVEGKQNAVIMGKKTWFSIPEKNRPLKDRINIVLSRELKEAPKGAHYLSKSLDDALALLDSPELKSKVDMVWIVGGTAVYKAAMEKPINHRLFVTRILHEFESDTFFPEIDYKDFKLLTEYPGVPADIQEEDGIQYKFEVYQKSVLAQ
- ASSAY NOTES: Inhibitory activity against chicken dihydrofolate reductase at pH 7.2.
MEASURED ATTRIBUTE: Ki

For orientation, consider the following solved cases.
CCCCOCc1cccc(Cc2cnc(N)nc2N)c1 | 6.76 µM
COCCOc1c(OC)cc(Cc2cnc(N)nc2N)cc1OC | 229 µM

Next:
input: Query the reported Ki for Dihydrofolate reductase (Gallus gallus, UniProt P00378); item: CC(=O)Nc1ccc(Cc2cnc(N)nc2N)cc1
output: 55 µM
